Provenance of the data: patent US10744136B2

Target: JAK1 (Homo sapiens, UniProt P23458)
Construct: purchased Thermo Fisher Scientific
Sequence (P23458 whole entry): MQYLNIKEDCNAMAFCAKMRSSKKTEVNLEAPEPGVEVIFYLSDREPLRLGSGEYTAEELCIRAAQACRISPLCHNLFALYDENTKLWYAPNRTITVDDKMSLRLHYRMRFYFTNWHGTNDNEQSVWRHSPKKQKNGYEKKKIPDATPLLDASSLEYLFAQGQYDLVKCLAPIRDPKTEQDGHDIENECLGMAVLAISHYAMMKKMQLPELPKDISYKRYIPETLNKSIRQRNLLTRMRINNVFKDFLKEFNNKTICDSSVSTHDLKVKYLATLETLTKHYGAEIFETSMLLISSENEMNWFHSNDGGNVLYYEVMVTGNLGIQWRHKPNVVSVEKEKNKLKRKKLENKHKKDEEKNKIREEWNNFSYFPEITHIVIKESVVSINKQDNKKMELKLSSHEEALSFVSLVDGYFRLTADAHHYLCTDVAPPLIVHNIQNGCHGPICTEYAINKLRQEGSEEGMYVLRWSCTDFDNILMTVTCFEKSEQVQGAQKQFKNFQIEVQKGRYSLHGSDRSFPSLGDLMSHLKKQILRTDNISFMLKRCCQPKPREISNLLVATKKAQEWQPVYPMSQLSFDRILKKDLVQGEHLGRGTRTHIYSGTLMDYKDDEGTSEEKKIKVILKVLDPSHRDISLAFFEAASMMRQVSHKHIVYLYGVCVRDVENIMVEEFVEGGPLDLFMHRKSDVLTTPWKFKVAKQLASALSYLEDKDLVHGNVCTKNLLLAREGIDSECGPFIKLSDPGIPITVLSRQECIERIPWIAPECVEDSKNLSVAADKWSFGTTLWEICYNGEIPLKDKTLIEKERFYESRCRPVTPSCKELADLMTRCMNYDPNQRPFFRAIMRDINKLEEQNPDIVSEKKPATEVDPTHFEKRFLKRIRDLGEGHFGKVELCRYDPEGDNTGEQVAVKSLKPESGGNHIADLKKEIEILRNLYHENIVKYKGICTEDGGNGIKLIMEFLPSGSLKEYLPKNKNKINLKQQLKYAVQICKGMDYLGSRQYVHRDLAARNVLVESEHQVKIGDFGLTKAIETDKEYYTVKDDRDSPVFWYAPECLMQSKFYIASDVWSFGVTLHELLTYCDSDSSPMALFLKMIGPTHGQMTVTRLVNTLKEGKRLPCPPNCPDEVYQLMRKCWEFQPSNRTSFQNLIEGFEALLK
Test: Z'-LYTE JAK1 kinase screen (Thermo Fisher Scientific)
Type: biochemical
Settings: test compound 1000 nm (so in the source); 1% DMSO; ATP at Km apparent
property-name: % Inhibition 1000 nm (%)

CC(C)CS(=O)(=O)NC1CC2(C1)CC(N(C)c1ncnc3[nH]ccc13)C2 (stereo not shown)
94
CN(c1ncnc2[nH]ccc12)C1CC2(C1)CC(S(=O)(=O)NC1CCC1)C2 (stereo not shown)
99
CCCS(=O)(=O)NC1CC2(C1)CC(N(C)c1ncnc3[nH]ccc13)C2 (stereo not shown)
95
CCCNS(=O)(=O)C1CC2(CC(N(C)c3ncnc4[nH]ccc34)C2)C1 (stereo not shown)
98
